# target_under_test: human β-Secretase (soluble part, AA 1-AA 460, sBACE-Fc) (Homo sapiens)
# Construct: The soluble part of the human β-Secretase (AA 1-AA 460) was cloned; made in house
# Sequence (P56817 22-460): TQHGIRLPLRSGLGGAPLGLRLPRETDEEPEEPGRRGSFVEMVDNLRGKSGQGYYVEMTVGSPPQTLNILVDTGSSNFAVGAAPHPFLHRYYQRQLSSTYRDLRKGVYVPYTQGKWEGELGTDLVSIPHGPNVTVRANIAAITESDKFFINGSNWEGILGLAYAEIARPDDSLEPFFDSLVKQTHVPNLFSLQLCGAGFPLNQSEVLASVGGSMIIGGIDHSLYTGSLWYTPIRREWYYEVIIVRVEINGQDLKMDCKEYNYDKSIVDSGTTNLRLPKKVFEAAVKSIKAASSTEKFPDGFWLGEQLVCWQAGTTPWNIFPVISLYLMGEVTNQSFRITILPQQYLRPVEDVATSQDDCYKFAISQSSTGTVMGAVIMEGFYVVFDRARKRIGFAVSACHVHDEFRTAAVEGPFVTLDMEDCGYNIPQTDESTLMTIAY
# assay_protocol: TR-FRET assay (β-secretase enzyme)
# Format: biochemical
Consider the reported IC50 of an entry and match it to a band in 0 = under 70 nM, 1 = from 70 nM up to 400 nM, 2 = 400 nM and over

{"columns": ["compound", "discrete_label"],
 "data": [
  ["COc1cncc(-c2cc(C3(c4cccc(S(F)(F)(F)(F)F)c4)N=C(N)N(C)C3=O)ccc2F)c1 (stereo not drawn) [Example 51]", 1],
  ["CN1C(=O)C(c2cccc(S(F)(F)(F)(F)F)c2)(c2ccc(F)c(-c3cncc(C#N)c3)c2)N=C1N (stereo not drawn) [Example 49]", 2],
  ["CN1C(=O)C(c2ccc(S(F)(F)(F)(F)F)cc2)(c2ccc(F)c(-c3cncc(C#N)c3)c2)N=C1N (stereo not drawn) [Example 23]", 1],
  ["CN1C(=O)C(c2ccc(S(F)(F)(F)(F)F)cc2)(c2cccc(-c3cccc(C#N)c3)c2)N=C1N (stereo not drawn) [Example 41]", 1],
  ["CN1C(=O)C(c2ccc(S(F)(F)(F)(F)F)cc2)(c2ccc(F)c(-c3cccnc3)c2)N=C1N (stereo not drawn) [Example 24]", 0],
  ["CN1C(=O)C(c2ccc(S(F)(F)(F)(F)F)cc2)(c2ccc(F)c(-c3cnccc3C#N)c2)N=C1N (stereo not drawn) [Example 29]", 1],
  ["COc1cncc(-c2cc(C3(c4ccc(S(F)(F)(F)(F)F)cc4)N=C(N)N(C)C3=O)ccc2F)c1 (single isomer, unassigned) [26 isomer 2]", 2],
  ["CN1C(=O)C(c2ccc(S(F)(F)(F)(F)F)cc2)(c2cccc(-c3cnccc3C#N)c2)N=C1N (stereo not drawn) [Example 34]", 2],
  ["CN1C(=O)C(c2ccc(S(F)(F)(F)(F)F)cc2)(c2cccc(-c3cccnc3F)c2)N=C1N (stereo not drawn) [Example 31]", 1],
  ["CN1C(=O)C(c2ccc(S(F)(F)(F)(F)F)cc2)(c2ccc(F)c(-c3cncc(F)c3)c2)N=C1N (stereo not drawn) [Example 27]", 1],
  ["CN1C(=O)C(c2ccc(S(F)(F)(F)(F)F)cc2)(c2cccc(-c3cscn3)c2)N=C1N (stereo not drawn) [Example 43]", 2],
  ["CN1C(=O)C(c2ccc(S(F)(F)(F)(F)F)cc2)(c2ccc(F)c(-c3cncnc3)c2)N=C1N (stereo not drawn) [Example 22]", 0],
  ["CN1C(=O)C(c2ccc(S(F)(F)(F)(F)F)cc2)(c2cccc(-c3cnccn3)c2)N=C1N (stereo not drawn) [Example 36]", 0],
  ["COc1cncc(-c2cc(C3(c4ccc(S(F)(F)(F)(F)F)cc4)N=C(N)N(C)C3=O)ccc2F)c1 (single isomer, unassigned) [26 isomer 1]", 0],
  ["CN1C(=O)C(c2ccc(S(F)(F)(F)(F)F)cc2)(c2ccc(F)c(-c3cnccn3)c2)N=C1N (stereo not drawn) [Example 30]", 1],
  ["CN1C(=O)C(c2cccc(S(F)(F)(F)(F)F)c2)(c2ccc(F)c(-c3cncc(F)c3)c2)N=C1N (stereo not drawn) [Example 52]", 2],
  ["CN1C(=O)C(c2ccc(S(F)(F)(F)(F)F)cc2)(c2cccc(-c3cn(C)cn3)c2)N=C1N (stereo not drawn) [Example 44]", 2],
  ["COc1cccc(-c2cccc(C3(c4ccc(S(F)(F)(F)(F)F)cc4)N=C(N)N(C)C3=O)c2)c1F (single isomer, unassigned) [37 isomer 1]", 0],
  ["CN1C(=O)C(c2cccc(S(F)(F)(F)(F)F)c2)(c2ccc(F)c(-c3cccnc3)c2)N=C1N (stereo not drawn) [Example 50]", 1],
  ["COc1cccc(-c2cccc(C3(c4ccc(S(F)(F)(F)(F)F)cc4)N=C(N)N(C)C3=O)c2)c1 (stereo not drawn) [Example 40]", 1],
  ["CN1C(=O)C(c2cccc(S(F)(F)(F)(F)F)c2)(c2ccc(F)c(-c3cncnc3)c2)N=C1N (stereo not drawn) [Example 48]", 2],
  ["COc1cncc(-c2cc(C3(c4ccc(S(F)(F)(F)(F)F)cc4)N=C(N)N(C)C3=O)ccc2F)c1 (stereo not drawn) [Example 25]", 0],
  ["CN1C(=O)C(c2ccc(S(F)(F)(F)(F)F)cc2)(c2cccc(-c3cc(C#N)ccc3F)c2)N=C1N (stereo not drawn) [Example 39]", 1]
]}

These entries and their values trace back to patent US20090233943A9.
